All values here come from ChEMBL document CHEMBL1138525.

I'd be grateful if you could share measured Efficacy for these entries.
- Tested on: P2Y purinoceptor 2 (Homo sapiens), P41231 [Y198A]
- Sequence (P41231 whole entry Y198A): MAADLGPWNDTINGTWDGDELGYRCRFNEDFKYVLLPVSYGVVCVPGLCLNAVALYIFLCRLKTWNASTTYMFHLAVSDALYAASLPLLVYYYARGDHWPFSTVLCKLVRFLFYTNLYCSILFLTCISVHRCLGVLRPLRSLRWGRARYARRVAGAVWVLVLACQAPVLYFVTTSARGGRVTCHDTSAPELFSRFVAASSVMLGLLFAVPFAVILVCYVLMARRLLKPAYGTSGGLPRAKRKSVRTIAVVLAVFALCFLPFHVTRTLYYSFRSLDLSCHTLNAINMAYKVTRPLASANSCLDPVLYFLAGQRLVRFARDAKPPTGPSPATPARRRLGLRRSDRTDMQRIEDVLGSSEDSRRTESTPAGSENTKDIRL
- assay summary: Agonist activity at N-terminal HA epitope-tagged human P2Y2 receptor Y198A mutant expressed in human 1321N1 cells assessed as increase in intracellular calcium level relative to carbachol
- Format: functional, cell-based
Give bare numbers, in %.

Below, 3 molecules whose answers are already recorded.
O=c1ccn([C@@H]2O[C@H](COP(=O)(O)OP(=O)(O)OP(=O)(O)OP(=O)(O)OC[C@H]3O[C@@H](n4ccc(=O)[nH]c4=O)[C@H](O)[C@@H]3O)[C@@H](O)[C@H]2O)c(=O)[nH]1    127
Nc1ncnc2c1ncn2[C@@H]1O[C@H](COP(=O)(O)OP(=O)(O)OP(=O)(O)OP(=O)(O)OC[C@H]2O[C@@H](n3cnc4c(N)ncnc43)[C@H](O)[C@@H]2O)[C@@H](O)[C@H]1O [DIADENOSINE TETRAPHOSPHATE]    117
Nc1ncnc2c1ncn2[C@@H]1O[C@H](COP(=O)(O)OP(=O)(O)OP(=O)(O)O)[C@@H](O)[C@H]1O [ADENOSINE TRIPHOSPHATE]    126

Recorded Efficacy of O=c1ccn([C@@H]2O[C@H](COP(=O)(O)OP(=O)(O)OP(=O)(O)O)[C@@H](O)[C@H]2O)c(=O)[nH]1 [URIDINE TRIPHOSPHATE] , please.
128
